Exercise: state measured MIC Coagulase Negative Staphylococcus (GC 4549) for each of the compounds provided.
System: Staphylococcus sp.
test-protocol: In vitro antibacterial evaluation: minimum inhibitory concentration (MIC), broth dilution method
Assay type: cell-based
applied-conditions: strain GC 4549
One number for each entry, in µg/mL.

compound	value-measured
Cc1ccc(CC2OCC3OC(OC4C(CO)OC(Oc5ccc(CC6NC(=O)C(C(C)c7ccccc7)NC(=O)CNC(=O)C(CO)NC(=O)C(C(O)C7CNC(=N)N7C7OC(CO)C(O)C(O)C7O)NC(=O)C(C(O)C7CNC(=N)N7)NC6=O)cc5)C(O)C4O)C(O)C(O)C3O2)cc1 (stereo not shown)	1
CC(c1ccccc1)C1NC(=O)CNC(=O)C(CO)NC(=O)C(C(O)C2CNC(=N)N2C2OC(CO)C(O)C(O)C2O)NC(=O)C(C(O)C2CNC(=N)N2)NC(=O)C(Cc2ccc(OC3OC(COC(=O)C(c4ccccc4)c4ccccc4)C(OC4OC(CO)C(O)C(O)C4O)C(O)C3O)cc2)NC1=O (stereo not shown) [Example 96b]	0.5

Please give MIC Coagulase Negative Staphylococcus (GC 4549) for each item listed below.
1. N=C1NCC(C(O)C2NC(=O)C(Cc3ccc(OC4OC(CO)C(OC5OC6COC7(OC6C(O)C5O)C5CC6CC(C5)CC7C6)C(O)C4O)cc3)NC(=O)C(Cc3ccccc3)NC(=O)CNC(=O)C(CO)NC(=O)C(C(O)C3CNC(=N)N3C3OC(CO)C(O)C(O)C3O)NC2=O)N1 (stereo not shown)
2. CC(c1ccccc1)C1NC(=O)CNC(=O)C(CO)NC(=O)C(C(O)C2CN(c3ncccn3)C(=N)N2C2OC(CO)C(O)C(O)C2O)NC(=O)C(C(O)C2CNC(=Nc3ncccn3)N2)NC(=O)C(Cc2ccc(OC3OC(CO)C(OC4OC5COC6(OC5C(O)C4O)C4CC5CC(C4)CC6C5)C(O)C3O)cc2)NC1=O (stereo not shown)

Reply:
0.25
16

Please give MIC Coagulase Negative Staphylococcus (GC 4549) for each item listed below.
1. CCCCN1CC(C(O)C2NC(=O)C(C(O)C3CNC(=N)N3)NC(=O)C(Cc3ccc(OC4OC(CO)C(OC5OC6COC7(OC6C(O)C5O)C5CC6CC(C5)CC7C6)C(O)C4O)cc3)NC(=O)C(C(C)c3ccccc3)NC(=O)CNC(=O)C(CO)NC2=O)N(C2OC(CO)C(O)C(O)C2O)C1=N (stereo not shown)
2. CC(c1ccccc1)C1NC(=O)CNC(=O)C(CO)NC(=O)C(C(O)C2CNC(=N)N2C2OC(CO)C(O)C(O)C2O)NC(=O)C(C(O)C2CNC(=N)N2)NC(=O)C(Cc2ccc(OC3OC(CO)C(OC4OC5COC6(CCCCCCCCCCCC6)OC5C(O)C4O)C(O)C3O)cc2)NC1=O (stereo not shown)

Reply:
1
8
